# STUDY_SYSTEM: mMC1R (Mus musculus)
# Sequence (Q01727 whole entry): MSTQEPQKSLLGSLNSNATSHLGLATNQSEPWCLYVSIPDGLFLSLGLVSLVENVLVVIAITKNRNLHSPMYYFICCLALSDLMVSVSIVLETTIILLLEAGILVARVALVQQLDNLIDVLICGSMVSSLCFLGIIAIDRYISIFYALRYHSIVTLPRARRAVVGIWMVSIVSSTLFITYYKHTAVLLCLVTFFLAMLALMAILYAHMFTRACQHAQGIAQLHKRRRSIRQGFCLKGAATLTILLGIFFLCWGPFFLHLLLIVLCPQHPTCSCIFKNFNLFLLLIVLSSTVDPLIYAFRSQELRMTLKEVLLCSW
# PROTOCOL: CRE/β-galactosidase reporter gene bioassay, agonist activity at mMC1R
# Type: cell-based
# TEST_PARAMETERS: mMC1R EC50, agonist; HEK-293 cells stably expressing receptor; ±SEM
Square brackets hold non-standard residues; d marks the D form. Peptide text beside a SMILES is read from it. * marks the point of attachment. Bip = N[C@@H](Cc1ccc(-c2ccccc2)cc1)C(=O)O; dBip = N[C@H](Cc1ccc(-c2ccccc2)cc1)C(=O)O; dPhe(4-I) = N[C@H](Cc1ccc(I)cc1)C(=O)O; 2Nal = N[C@@H](Cc1ccc2ccccc2c1)C(=O)O; Bta = N[C@@H](Cc1csc2ccccc12)C(=O)O; Tic = O=C(O)[C@@H]1Cc2ccccc2CN1; 2Thi = N[C@@H](Cc1cccs1)C(=O)O; Octanoyl = CCCCCCCC(=O)*
ASSAY_METRIC: EC50

Example entries begin here.
| COMPOUND | EXPERIMENTAL_VALUE |
| --- | --- |
| CCCCCCCC(=O)N[C@@H](Cc1c[nH]cn1)C(=O)N[C@H](Cc1ccccc1)C(=O)N[C@@H](CCCNC(=N)N)C(=O)N1Cc2ccccc2C[C@H]1C(N)=O [Peptide 4, Octanoyl-His-DPhe-Arg-Tic-NH2] (Octanoyl-H[dF]R[Tic]-NH2) | 7.4 nM |
| CCCCCCCC(=O)N[C@@H](Cc1c[nH]c2ccccc12)C(=O)N[C@H](Cc1ccccc1)C(=O)N[C@@H](CCCNC(=N)N)C(=O)N[C@@H](Cc1c[nH]c2ccccc12)C(N)=O [Peptide 10, Octanoyl-Trp-DPhe-Arg-Trp-NH2] (Octanoyl-W[dF]RW-NH2) | 210 nM |
| CC(=O)N[C@@H](Cc1ccccc1)C(=O)N[C@H](Cc1ccc(I)cc1)C(=O)N[C@@H](CCCNC(=N)N)C(=O)N[C@@H](Cc1c[nH]c2ccccc12)C(N)=O [Peptide 15, Ac-Phe-(pI)DPhe-Arg-Trp-NH2] (Ac-F[dPhe(4-I)]RW-NH2) | 820 nM |
| CCCCCCCC(=O)N[C@@H](Cc1cnc[nH]1)C(=O)N[C@H](Cc1ccccc1)C(=O)N[C@@H](CCCNC(=N)N)C(=O)N[C@@H](Cc1ccc(-c2ccccc2)cc1)C(N)=O [Peptide 2, Octanoyl-His-DPhe-Arg-Bip-NH2] (Octanoyl-H[dF]R[Bip]-NH2) | 45 nM |
| CC(=O)N[C@@H](Cc1c[nH]cn1)C(=O)N[C@H](Cc1ccc(-c2ccccc2)cc1)C(=O)N[C@@H](CCCNC(=N)N)C(=O)N[C@@H](Cc1ccc2ccccc2c1)C(N)=O [Peptide 36, Ac-His-DBip-Arg-Nal(2’)-NH2] (Ac-H[dBip]R[2Nal]-NH2) | 17 nM |
| CC(=O)N[C@@H](Cc1c[nH]c2ccccc12)C(=O)N[C@H](Cc1ccccc1)C(=O)N[C@@H](CCCNC(=N)N)C(=O)N[C@@H](Cc1csc2ccccc12)C(N)=O [Peptide 25, Ac-Trp-DPhe-Arg-3Bal-NH2] (Ac-W[dF]R[Bta]-NH2) | 8000 nM |
| CC(=O)N[C@@H](Cc1c[nH]c2ccccc12)C(=O)N[C@H](Cc1ccc(I)cc1)C(=O)N[C@@H](CCCNC(=N)N)C(=O)N[C@@H](Cc1c[nH]c2ccccc12)C(N)=O [Peptide 13, Ac-Trp-(pI)DPhe-Arg-Trp-NH2] (Ac-W[dPhe(4-I)]RW-NH2) | 4200 nM |
| CC(=O)N[C@@H](Cc1ccc(-c2ccccc2)cc1)C(=O)N[C@H](Cc1ccc(I)cc1)C(=O)N[C@@H](CCCNC(=N)N)C(=O)N[C@@H](Cc1c[nH]c2ccccc12)C(N)=O [Peptide 17, Ac-Bip-(pI)DPhe-Arg-Trp-NH2] (Ac-[Bip][dPhe(4-I)]RW-NH2) | 5200 nM |
| CCCCCCCC(=O)N[C@@H](Cc1c[nH]cn1)C(=O)N[C@H](Cc1ccccc1)C(=O)N[C@@H](CCCNC(=N)N)C(=O)N[C@H](Cc1ccc(-c2ccccc2)cc1)C(N)=O [Peptide 8, Octanoyl-His-DPhe-Arg-DBip-NH2] (Octanoyl-H[dF]R[dBip]-NH2) | 180 nM |
| CCCCCCCC(=O)N[C@@H](Cc1c[nH]cn1)C(=O)N[C@H](Cc1ccc(I)cc1)C(=O)N[C@@H](CCCNC(=N)N)C(=O)N[C@@H](Cc1c[nH]c2ccccc12)C(N)=O [Peptide 6, Octanoyl-His-(pI)DPhe-Arg-Trp-NH2] | 6.3 nM |

Recorded result, CC(=O)N[C@@H](Cc1cccs1)C(=O)N[C@H](Cc1ccccc1)C(=O)N[C@@H](CCCNC(=N)N)C(=O)N[C@@H](Cc1ccc2ccccc2c1)C(N)=O [Peptide 28, Ac-2Thi-DPhe-Arg-Nal(2’)-NH2] (Ac-[2Thi][dF]R[2Nal]-NH2) , EC50: 2600 nM

Recorded result, CC(=O)N[C@@H](Cc1cccs1)C(=O)N[C@H](Cc1ccccc1)C(=O)N[C@@H](CCCNC(=N)N)C(=O)N[C@@H](Cc1csc2ccccc12)C(N)=O [Peptide 27, Ac-2Thi-DPhe-Arg-3Bal-NH2] (Ac-[2Thi][dF]R[Bta]-NH2) , EC50: 6400 nM

Recorded result, CC(=O)N[C@@H](Cc1c[nH]cn1)C(=O)N[C@H](Cc1ccc(I)cc1)C(=O)N[C@@H](CCCNC(=N)N)C(=O)N[C@@H](Cc1csc2ccccc12)C(N)=O [Peptide 30, Ac-His-(pI)DPhe-Arg-3Bal-NH2] (Ac-H[dPhe(4-I)]R[Bta]-NH2) , EC50: 45 nM
